Assay: Neutralization efficiency by two-phase titration (pH at amine titrant concentration)
Assay type: physicochemical
Settings: Table 2; 1000 ppm amine titrant, 100° C., second set, averages of 3 repeated tests
Experimental: Several amines were tested to determine their efficiencies in neutralizing acidic species and reducing deposits of hydrochloride and amine salts. The neutralization efficiency of these amines was tested using two-phase titration. For each amine tested, a titrand (100 ml) was placed in a flask. The titrand was designed to simulate an initial condensate and comprised 90 vol % naphtha and 10 vol % acidic water. […]
Hi there, I'd appreciate the recorded Neutral. Efficiency pH at 1000 ppm for every entry that follows.

For CN1CCOCC1 [N-methylmorpholine (NMM), N-methylmorpholine, reference compound] the compound record lists Neutral. Efficiency pH at 1000 ppm as 6.8

Reported Neutral. Efficiency pH at 1000 ppm of CN(C)C(C)(C)CO [2-Dimethylamino 2-methyl 2-propanol (DMAMP) 80% azeotrope so] : 9.5

Quick note, Neutral. Efficiency pH at 1000 ppm for CN1CCN(C)CC1 landed at 7.6

Entry CC(C)C(C)N (stereo not drawn) — recorded Neutral. Efficiency pH at 1000 ppm = 9.6

The reported Neutral. Efficiency pH at 1000 ppm of the compound CN1CCCCC1 was 8.1

Measured Neutral. Efficiency pH at 1000 ppm, CN(C)C [Trimethylamine (TMA), Trimethylamine, reference compound] : 8.8

According to the records, this compound CN(C)CN(C)C displays Neutral. Efficiency pH at 1000 ppm of 9.25

Lookup result for CN1CCCC1 ; measured Neutral. Efficiency pH at 1000 ppm: 8.1

Memo: CN(C)CCN(C)C , reported Neutral. Efficiency pH at 1000 ppm: 8.3
